Target: T1, hIL2Rg-Fc (SinoBiological cat#10555) (human, UniProt P31785 23-254, limits assumed)
T1 construct: Bought Fc fusion (SinoBiological cat#10555); P31785 is printed for hCD132 in the background; also called human IL2Rg-Fc; not shown: Fc of the bought fusion protein
T1 sequence (looked up): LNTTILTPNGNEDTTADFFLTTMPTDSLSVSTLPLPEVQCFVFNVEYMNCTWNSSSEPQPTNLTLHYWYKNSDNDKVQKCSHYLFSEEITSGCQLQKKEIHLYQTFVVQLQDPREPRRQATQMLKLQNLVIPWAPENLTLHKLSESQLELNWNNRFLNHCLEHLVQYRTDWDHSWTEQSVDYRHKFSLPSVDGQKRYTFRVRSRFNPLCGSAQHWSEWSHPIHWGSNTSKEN
Test: SPR (Biacore T200), Fc-fused ligand captured on chip, dual VHH as analyte, 1:1 Langmuir fit
readout name: Kd (nM)
Kindly answer with a numeric value in nM, unit omitted.

# binder, result unit, Kd
measured = [
    ("DR395(DR229-DR239) (bispecific antibody, Anti-hIL10Ra/hIL2Rg dual VHH with ASH6 handle; also called A2) QVQLQESGGGLVQPGGSLRLSCTASGFSFSSYPMTWARQAPGKGLEWVSTIASDGGSTAYAASVEGRFTISRDNAKSTLYLQLNSLKTEDTAMYYCTKGYGDGTPAPGQGTQVTVSSGGGSQVQLQESGGGSVQAGGSLRLSCTVSGYTYSSNCMGWFRQAPGKEREGVATIYTGGGNTYYADSVKGRFTISQDNAKNTVYLQMNNLKPEDTAMYYCAAEPLSRVYGGSCPTPTFDYWGQGTQVTVSSASHHHHHH", "nM", 3.9),
    ("DR444(DR236-DR234) (bispecific antibody, Anti-hIL10Ra/hIL2Rg dual VHH with ASH6 handle; also called E8) QVQLQESGGGSVQAGGSLRLSCAASRFTYSSYCMGWFRQAPGKEREGVASIDSDGSTSYTDSVKGRFTISKDNAKNTLYLQMNSLKPEDTAMYYCALDLMSTVVPGFCGFLLSAGMDYWGKGTQVTVSSGGGSQVQLQESGGGSVQAGGSLRLSCVASGYTFSSYCMGWFRQAPGKEREGVAALGGGSTYYADSVKGRFTISQDNAKNTLYLQMNSLKPEDTAMYYCAAAWVACLEFGGSWYDLARYKHWGQGTQVTVSSASHHHHHH", "nM", 6.9),
    ("DR465(DR240-DR231) (bispecific antibody, Anti-hIL10Ra/hIL2Rg dual VHH with ASH6 handle; also called H1) QVQLQESGGGSVQAGGSLRLSCGASGYTYSSYCMGWFRQVPGKEREGVAVIDSDGSTSYADSVKGRFTISKDNGKNTLYLQMNSLKPEDTAMYYCAADLGHYRPPCGVLYLGMDYWGKGTQVTVSSGGGSQVQLQESGGGSVQAGGSLRLSCTASGFTFDDREMNWYRQAPGNECELVSTISSDGSTYYADSVKGRFTISQDNAKNTVYLQMDSVKPEDTAVYYCAADFMIAIQAPGAGCWGQGTQVTVSSASHHHHHH", "nM", 14.5),
]

Now turn to the next binder.
Request: Report Kd, nothing else, for this binder: DR441(DR236-DR231) (bispecific antibody, Anti-hIL10Ra/hIL2Rg dual VHH with ASH6 handle; also called F1) QVQLQESGGGSVQAGGSLRLSCAASRFTYSSYCMGWFRQAPGKEREGVASIDSDGSTSYTDSVKGRFTISKDNAKNTLYLQMNSLKPEDTAMYYCALDLMSTVVPGFCGFLLSAGMDYWGKGTQVTVSSGGGSQVQLQESGGGSVQAGGSLRLSCTASGFTFDDREMNWYRQAPGNECELVSTISSDGSTYYADSVKGRFTISQDNAKNTVYLQMDSVKPEDTAVYYCAADFMIAIQAPGAGCWGQGTQVTVSSASHHHHHH
Result: 11.1
